# experimental-system: Hs_FPR2 (Homo sapiens)
# Construct: expressed in transfected cells
# Sequence (P25090 whole entry): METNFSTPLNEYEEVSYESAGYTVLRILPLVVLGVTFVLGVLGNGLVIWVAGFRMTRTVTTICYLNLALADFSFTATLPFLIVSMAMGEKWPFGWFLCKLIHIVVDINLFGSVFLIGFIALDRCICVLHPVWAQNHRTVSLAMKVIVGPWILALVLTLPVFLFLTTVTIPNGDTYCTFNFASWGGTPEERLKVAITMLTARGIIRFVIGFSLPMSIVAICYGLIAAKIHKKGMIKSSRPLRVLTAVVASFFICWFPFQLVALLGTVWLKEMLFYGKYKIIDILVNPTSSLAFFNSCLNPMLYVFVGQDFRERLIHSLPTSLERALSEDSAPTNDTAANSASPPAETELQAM
# measurement-notes: BRET receptor-RLuc8 interaction with Venus-mGsi
# Assay type: cell-based
Where a SMILES comes first, the peptide text is derived from it. The star is where a group is joined. Palmitoyl = CCCCCCCCCCCCCCCC(=O)*; For = O=C*
measured-parameter: Emax (%)

compound | readout-number
COc1cc(F)c([C@@H]2CNC(=O)[C@H]2NC(=O)Nc2ccccc2)c(F)c1 | 64.4
CCCCCCCCCCCCCCCC(=O)N[C@@H](CCCCN)C(=O)N[C@H](C(=O)N[C@@H](Cc1c[nH]cn1)C(=O)N[C@@H](CCCCN)C(=O)N[C@@H](CCCCN)C(=O)NCC(=O)N[C@@H](CCSC)C(=O)N[C@H](C(=O)N[C@@H](CCCCN)C(=O)N[C@@H](CO)C(=O)O)[C@@H](C)CC)[C@@H](C)CC [F2Pal10] (Palmitoyl-KIHKKGMIKS-OH) | 19.4
CSCC[C@H](NC(=O)[C@H](Cc1ccc(O)cc1)NC(=O)[C@H](CCCCN)NC(=O)[C@@H](N)Cc1c[nH]c2ccccc12)C(=O)N[C@H](C(=O)N[C@H](CCSC)C(N)=O)C(C)C | 100
CSCC[C@H](NC=O)C(=O)N[C@@H](CC(C)C)C(=O)N[C@@H](Cc1ccccc1)C(=O)N[C@@H](CCCCN)C(=O)O [fMLFK, fMet-Leu-Phe-Lys] (For-MLFK-OH) | 80.7
CSCC[C@H](NC=O)C(=O)N[C@@H](CC(C)C)C(=O)N[C@@H](Cc1ccccc1)C(=O)O | 61.7
